Test system: HOP-62
method-summary: NCI screen cytotoxicity, lung HOP-62
Assay type: cell-based
study-conditions: Homo sapiens, 50% growth inhibition
Could you please report measured GI50 for the items listed next?
Kindly provide the numeric value in µM only, without the unit symbol.

GET /value?item= CCOC(=O)CNc1ccc2c3c(n(CCCN)c(=O)c2c1)-c1ccccc1C3=O.Cl [Compound 40 of (B), Hydrochloride] &field=GI50 returns 0.93

GET /value?item= Cl.NCCCn1c2c(c3ccc(NCC(=O)O)cc3c1=O)C(=O)c1ccccc1-2 [Compound 43 of (B), Hydrochloride] &field=GI50 returns 0.65

GET /value?item= NCCCn1c2c(c3ccc(N)cc3c1=O)C(=O)c1ccccc1-2 &field=GI50 returns 0.27

* * *

Tested on: OVCAR-3
method-summary: NCI screen cytotoxicity, ovarian OVCAR-3
study-conditions: Homo sapiens, OVCAR-3, read-out: Cytotoxicity (GI50 in μM) ovarian OVCAR-3
quantity-kind: GI50 (µM)
Kindly provide the numeric value in µM only, without the unit symbol.

GET /value?item= COc1ccc2c(c1)-c1c(c3ccc([N+](=O)[O-])cc3c(=O)n1CCCn1ccnc1)C2=O &field=GI50 returns 0.03

GET /value?item= COc1ccc2c(c1)-c1c(c3ccc([N+](=O)[O-])cc3c(=O)n1CCCN)C2=O.Cl [Compound 51 of (B), Hydrochloride] &field=GI50 returns 0.54

GET /value?item= CCOC(=O)CNc1ccc2c3c(n(CCCN)c(=O)c2c1)-c1ccccc1C3=O.Cl [Compound 40 of (B), Hydrochloride] &field=GI50 returns 3.12

GET /value?item= O=C1c2ccccc2-c2c1c1ccc([N+](=O)[O-])cc1c(=O)n2CCCO &field=GI50 returns 0.87

GET /value?item= NCCCn1c2c(c3ccc(N)cc3c1=O)C(=O)c1ccccc1-2 &field=GI50 returns 0.13

GET /value?item= Cl.NCCCn1c2c(c3ccc(NCC(=O)O)cc3c1=O)C(=O)c1ccccc1-2 [Compound 43 of (B), Hydrochloride] &field=GI50 returns 1.6

* * *

Could you please report measured IC50 for the items listed next?
experimental-target: Tdp1 (Homo sapiens (Human))
Sequence (Q9NUW8 whole entry): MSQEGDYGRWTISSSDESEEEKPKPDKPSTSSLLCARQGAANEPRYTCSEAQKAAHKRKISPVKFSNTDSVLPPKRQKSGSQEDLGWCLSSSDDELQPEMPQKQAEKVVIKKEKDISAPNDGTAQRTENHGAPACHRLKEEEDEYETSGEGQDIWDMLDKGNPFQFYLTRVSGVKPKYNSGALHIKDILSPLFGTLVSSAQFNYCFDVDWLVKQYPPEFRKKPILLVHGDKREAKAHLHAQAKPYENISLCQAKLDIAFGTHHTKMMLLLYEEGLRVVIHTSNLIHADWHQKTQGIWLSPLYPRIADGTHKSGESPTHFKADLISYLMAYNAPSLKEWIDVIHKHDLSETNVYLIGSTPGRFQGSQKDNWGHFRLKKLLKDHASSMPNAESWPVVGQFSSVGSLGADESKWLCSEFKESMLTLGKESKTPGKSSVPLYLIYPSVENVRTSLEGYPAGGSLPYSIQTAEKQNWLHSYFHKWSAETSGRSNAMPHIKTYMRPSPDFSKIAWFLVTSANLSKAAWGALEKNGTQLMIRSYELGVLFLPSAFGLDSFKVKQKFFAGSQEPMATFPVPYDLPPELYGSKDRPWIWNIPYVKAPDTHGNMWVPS
method-summary: Gel-based assay measuring the inhibition of recombinant Tdp1;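 note: 5′-32P-labeled single-stranded DNA with 3′-phosphotyrosine incubated with 5 pM enzyme for 15 min at room temperature, inhibition seen as loss of 3′-phosphate product band by densitometry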
Type: biochemical

Entry COc1ccc2c(c1)-c1c(c3ccc([N+](=O)[O-])cc3c(=O)n1CCCN1CCOCC1)C2=O ; assay system Tdp1 (Homo sapiens (Human)); IC50 recorded at > 111 µM

Entry COC(=O)CCCC(=O)Nc1ccc2c3c(n(C)c(=O)c2c1)-c1ccccc1C3=O ; assay system Tdp1 (Homo sapiens (Human)); IC50 recorded at > 111 µM

Entry O=C1c2ccccc2-c2c1c1ccccc1c(=O)n2CCCNCCCNCCCn1c2c(c3ccccc3c1=O)C(=O)c1ccccc1-2 ; assay system Tdp1 (Homo sapiens (Human)); IC50 recorded at 1.5 µM

Entry COC(=O)C(=O)Nc1ccc2c3c(n(C)c(=O)c2c1)-c1ccccc1C3=O ; assay system Tdp1 (Homo sapiens (Human)); IC50 recorded at > 111 µM

Entry COc1ccc2c(c1)-c1c(c3ccc([N+](=O)[O-])cc3c(=O)n1CCCBr)C2=O ; assay system Tdp1 (Homo sapiens (Human)); IC50 recorded at > 111 µM

Entry Cl.NCCCn1c2c(c3ccc(NC(=O)C(=O)O)cc3c1=O)C(=O)c1ccccc1-2 [Compound 32 of (B), Hydrochloride] ; assay system Tdp1 (Homo sapiens (Human)); IC50 recorded at > 111 µM

Entry Cl.NCCCn1c2c(c3ccc(NC(=O)CCCC(=O)O)cc3c1=O)C(=O)c1ccccc1-2 [Compound 35 of (B), Hydrochloride] ; assay system Tdp1 (Homo sapiens (Human)); IC50 recorded at > 111 µM
